Source listed as the kinase profiling compilation of Christmann-Franck et al. (2016).

Biological target: STK4 (human)
Experiment: KINOMEscan competition binding
Conditions: compound 10.0 µM
Measured kinase still bound, per cent of control, listed per entry.
Report the value in % with no unit label.

Item O=C(NC1CC1)c1cccc(-c2ccc3c(NC(=O)C4CC4)n[nH]c3c2)c1 with STK4 (human) - kinase still bound, per cent of control? 76

* * *

Target: BRSK1 (human)
Assay: KINOMEscan competition binding
Conditions: compound 10.0 µM
VALUE_TYPE: kinase still bound, per cent of control (%)
Report the value in % with no unit label.

Here's what some known entries look like.
[[record]]
smiles_representation = "CCN1CCN(Cc2ccc(Nc3ncc4c(n3)N(C)c3ccccc3C(=O)N4C)cc2C(F)(F)F)CC1"
target_or_test_system = "BRSK1 (human)"
value_type = "kinase still bound, per cent of control"
unit_spec = "%"
result = 41

[[record]]
smiles_representation = "O=C(O)c1ccc(Nc2ncc3c(n2)-c2ccc(Cl)cc2C(c2c(F)cccc2F)=NC3)cc1"
target_or_test_system = "BRSK1 (human)"
value_type = "kinase still bound, per cent of control"
unit_spec = "%"
result = 100

[[record]]
smiles_representation = "OCCCNc1cc(-c2ccnc(Nc3cccc(Cl)c3)n2)ccn1"
target_or_test_system = "BRSK1 (human)"
value_type = "kinase still bound, per cent of control"
unit_spec = "%"
result = 100

[[record]]
smiles_representation = "Cc1ccc(C(=O)Nc2cccc(C(F)(F)F)c2)cc1Nc1cncc(C(N)=O)c1"
target_or_test_system = "BRSK1 (human)"
value_type = "kinase still bound, per cent of control"
unit_spec = "%"
result = 100


Which measured kinase still bound, per cent of control value corresponds to N#Cc1c(NC(=O)c2cccc3ccccc23)sc2c1CCCC2 ? 100

* * *

Target: RPS6KA6 KD2 (human)
Test: KINOMEscan competition binding
Conditions: compound 10.0 µM
VALUE_TYPE: kinase still bound, per cent of control (%)
Report the value in % with no unit label.

Here's what some known entries look like.
[[record]]
compound = "N#Cc1c(NC(=O)c2cccc3ccccc23)sc2c1CCCC2"
result = 77

[[record]]
compound = "C=CC(=O)Nc1cc(NC(=O)c2ccc(C)c(NC(=O)c3ccno3)c2)cc(C(F)(F)F)c1"
result = 79

[[record]]
compound = "CN(C)C/C=C/C(=O)Nc1cccc(Nc2ncc3c(n2)N(C)c2ccccc2C(=O)N3C)c1"
result = 0.6

[[record]]
compound = "O=C(O)c1ccc(Nc2ncc3c(n2)-c2ccc(Cl)cc2C(c2c(F)cccc2F)=NC3)cc1"
result = 58

[[record]]
compound = "COc1cc(C(=O)NC2CCN(C)CC2)ccc1Nc1ncc2c(n1)N(C1CCCC1)C(C)CC(=O)N2C (stereo unspecified)"
result = 12


Consider the additional compound presented here.
Which measured kinase still bound, per cent of control value corresponds to CCCS(=O)(=O)Nc1ccc(F)c(C(=O)c2c[nH]c3ncc(-c4ccc(Cl)cc4)cc23)c1F ? 75

* * *

Molecular target: PRKD1 (human)
Test: KINOMEscan competition binding
Conditions: compound 10.0 µM
VALUE_TYPE: kinase still bound, per cent of control (%)
Report the value in % with no unit label.

[[record]]
compound = "Nc1ccc(-c2ccc3ncc4ccc(=O)n(-c5cccc(C(F)(F)F)c5)c4c3c2)cn1"
result = 87

[[record]]
compound = "Cn1c(=O)n(-c2ccc(C(C)(C)C#N)cc2)c2c3cc(-c4cnc5ccccc5c4)ccc3ncc21"
result = 100

[[record]]
compound = "O=C(NOC[C@H](O)CO)c1ccc(F)c(F)c1Nc1ccc(I)cc1F"
result = 100


Which measured kinase still bound, per cent of control value corresponds to COc1cc(C(=O)NC2CCN(C)CC2)ccc1Nc1ncc2c(n1)N(C1CCCC1)C(C)CC(=O)N2C (stereo not given) ? 100

Which measured kinase still bound, per cent of control value corresponds to CCOc1cc2ncc(C#N)c(Nc3ccc(OCc4ccccn4)c(Cl)c3)c2cc1NC(=O)/C=C/CN(C)C ? 74

* * *

Biological target: LATS2 (human) (UniProt Q9NRM7)
Sequence (Q9NRM7 whole entry, looked up): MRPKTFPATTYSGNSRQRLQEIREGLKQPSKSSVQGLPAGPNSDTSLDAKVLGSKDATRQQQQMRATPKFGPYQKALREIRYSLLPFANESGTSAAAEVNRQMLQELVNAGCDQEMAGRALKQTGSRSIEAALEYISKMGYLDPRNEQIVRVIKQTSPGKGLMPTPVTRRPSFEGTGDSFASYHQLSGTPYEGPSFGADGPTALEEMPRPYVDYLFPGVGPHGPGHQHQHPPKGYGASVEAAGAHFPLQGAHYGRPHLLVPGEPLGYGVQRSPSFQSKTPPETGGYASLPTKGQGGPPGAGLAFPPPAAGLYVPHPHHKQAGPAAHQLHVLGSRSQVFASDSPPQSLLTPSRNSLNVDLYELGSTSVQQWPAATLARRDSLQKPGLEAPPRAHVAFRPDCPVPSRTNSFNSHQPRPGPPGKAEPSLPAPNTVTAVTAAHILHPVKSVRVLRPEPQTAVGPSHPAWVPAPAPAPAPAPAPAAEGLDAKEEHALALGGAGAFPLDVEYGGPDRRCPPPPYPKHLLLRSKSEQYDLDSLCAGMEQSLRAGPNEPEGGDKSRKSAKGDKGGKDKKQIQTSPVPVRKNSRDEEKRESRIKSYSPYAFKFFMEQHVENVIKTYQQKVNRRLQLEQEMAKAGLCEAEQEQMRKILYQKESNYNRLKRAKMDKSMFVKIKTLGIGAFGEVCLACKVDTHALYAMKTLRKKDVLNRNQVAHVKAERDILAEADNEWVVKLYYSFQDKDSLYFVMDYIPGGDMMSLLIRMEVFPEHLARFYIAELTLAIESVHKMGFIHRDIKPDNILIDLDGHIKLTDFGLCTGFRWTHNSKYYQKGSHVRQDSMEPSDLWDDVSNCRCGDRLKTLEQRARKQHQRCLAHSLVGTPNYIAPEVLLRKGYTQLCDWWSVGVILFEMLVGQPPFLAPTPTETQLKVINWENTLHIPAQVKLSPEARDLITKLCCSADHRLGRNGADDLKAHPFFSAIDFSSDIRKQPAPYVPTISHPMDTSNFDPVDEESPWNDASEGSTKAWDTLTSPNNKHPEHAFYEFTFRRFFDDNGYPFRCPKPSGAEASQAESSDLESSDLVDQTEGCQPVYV
Experiment: KINOMEscan competition binding
Details: compound 10.0 µM
VALUE_TYPE: kinase still bound, per cent of control (%)
Report the value in % with no unit label.

[[record]]
smiles_representation = "COc1cc(N2CCN(C)CC2)ccc1Nc1nc(N)c(C(=O)c2c(Cl)cccc2Cl)s1"
target_or_test_system = "LATS2 (human) (UniProt Q9NRM7)"
unit_spec = "%"
result = 100

[[record]]
smiles_representation = "CCC(=O)N1CCN(c2ccc(-n3c(=O)ccc4cnc5ccc(-c6cnc7ccccc7c6)cc5c43)cc2C(F)(F)F)CC1"
target_or_test_system = "LATS2 (human) (UniProt Q9NRM7)"
unit_spec = "%"
result = 100


Which measured kinase still bound, per cent of control value corresponds to C[C@@H](Oc1cc(-n2cnc3ccc(CN4CCN(C)CC4)cc32)sc1C(N)=O)c1ccccc1C(F)(F)F ? 42

* * *

Measured kinase still bound, per cent of control, listed per entry.
Target: UniProtKB O60331
Sequence (O60331 whole entry, looked up): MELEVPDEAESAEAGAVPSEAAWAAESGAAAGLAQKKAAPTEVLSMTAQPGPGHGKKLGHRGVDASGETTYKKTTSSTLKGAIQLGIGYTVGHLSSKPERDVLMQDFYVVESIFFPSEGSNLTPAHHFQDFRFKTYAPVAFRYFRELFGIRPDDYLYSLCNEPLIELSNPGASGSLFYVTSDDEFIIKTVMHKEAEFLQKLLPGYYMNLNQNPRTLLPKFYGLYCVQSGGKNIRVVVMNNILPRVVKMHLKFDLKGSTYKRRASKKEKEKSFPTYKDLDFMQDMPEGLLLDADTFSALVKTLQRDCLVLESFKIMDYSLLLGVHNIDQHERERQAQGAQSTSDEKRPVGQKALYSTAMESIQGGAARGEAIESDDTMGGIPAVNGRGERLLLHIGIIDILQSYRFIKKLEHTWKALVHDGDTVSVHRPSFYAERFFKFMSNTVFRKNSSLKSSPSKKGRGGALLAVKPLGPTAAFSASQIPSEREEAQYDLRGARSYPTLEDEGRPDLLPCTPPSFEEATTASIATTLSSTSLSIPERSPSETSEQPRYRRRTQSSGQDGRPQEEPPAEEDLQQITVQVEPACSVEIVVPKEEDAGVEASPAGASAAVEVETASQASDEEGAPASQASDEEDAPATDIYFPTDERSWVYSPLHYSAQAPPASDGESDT
Experiment: KINOMEscan competition binding
Settings: compound 10.0 µM
Report the value in % with no unit label.

Here's what some known entries look like.
[[record]]
smiles_representation = "O=C(NC1CC1)c1cccc(-c2ccc3c(NC(=O)C4CC4)n[nH]c3c2)c1"
unit_spec = "%"
result = 12

[[record]]
smiles_representation = "Nc1ccc(-c2ccc3ncc4ccc(=O)n(-c5cccc(C(F)(F)F)c5)c4c3c2)cn1"
unit_spec = "%"
result = 51

[[record]]
smiles_representation = "O=C1Nc2ccc(I)cc2/C1=C/c1cc(Br)c(O)c(Br)c1"
unit_spec = "%"
result = 19

[[record]]
smiles_representation = "Cc1cc([C@@H](C)Nc2ccccc2C(=O)O)c2nc(N3CCOCC3)cc(=O)n2c1"
unit_spec = "%"
result = 63


Which measured kinase still bound, per cent of control value corresponds to CCC(=O)N1CCN(c2ccc(-n3c(=O)ccc4cnc5ccc(-c6cnc7ccccc7c6)cc5c43)cc2C(F)(F)F)CC1 ? 80

* * *

Target: TGFBR1 (human)
Assay: KINOMEscan competition binding
Details: compound 10.0 µM
VALUE_TYPE: kinase still bound, per cent of control (%)
Report the value in % with no unit label.

Here's what some known entries look like.
[[record]]
molecule = "CN(C)C/C=C/C(=O)Nc1cccc(Nc2ncc3c(n2)N(C)c2ccccc2C(=O)N3C)c1"
result = 25

[[record]]
molecule = "C=CC(=O)Nc1cccc(Nc2nc(N[C@H]3CC[C@H](N(C)C)CC3)nc3c2ncn3C(C)C)c1"
result = 100

[[record]]
molecule = "COc1cc(C(=O)NC2CCN(C)CC2)ccc1Nc1ncc2c(n1)N(C1CCCC1)C(C)CC(=O)N2C (stereo not given)"
result = 100


Which measured kinase still bound, per cent of control value corresponds to CCCS(=O)(=O)Nc1ccc(F)c(C(=O)c2c[nH]c3ncc(-c4ccc(Cl)cc4)cc23)c1F ? 53

Which measured kinase still bound, per cent of control value corresponds to CCOc1cc2ncc(C#N)c(Nc3ccc(OCc4ccccn4)c(Cl)c3)c2cc1NC(=O)/C=C/CN(C)C ? 100

* * *

Target: PIK3CG (human) (UniProt P48736)
Sequence (P48736 whole entry, looked up): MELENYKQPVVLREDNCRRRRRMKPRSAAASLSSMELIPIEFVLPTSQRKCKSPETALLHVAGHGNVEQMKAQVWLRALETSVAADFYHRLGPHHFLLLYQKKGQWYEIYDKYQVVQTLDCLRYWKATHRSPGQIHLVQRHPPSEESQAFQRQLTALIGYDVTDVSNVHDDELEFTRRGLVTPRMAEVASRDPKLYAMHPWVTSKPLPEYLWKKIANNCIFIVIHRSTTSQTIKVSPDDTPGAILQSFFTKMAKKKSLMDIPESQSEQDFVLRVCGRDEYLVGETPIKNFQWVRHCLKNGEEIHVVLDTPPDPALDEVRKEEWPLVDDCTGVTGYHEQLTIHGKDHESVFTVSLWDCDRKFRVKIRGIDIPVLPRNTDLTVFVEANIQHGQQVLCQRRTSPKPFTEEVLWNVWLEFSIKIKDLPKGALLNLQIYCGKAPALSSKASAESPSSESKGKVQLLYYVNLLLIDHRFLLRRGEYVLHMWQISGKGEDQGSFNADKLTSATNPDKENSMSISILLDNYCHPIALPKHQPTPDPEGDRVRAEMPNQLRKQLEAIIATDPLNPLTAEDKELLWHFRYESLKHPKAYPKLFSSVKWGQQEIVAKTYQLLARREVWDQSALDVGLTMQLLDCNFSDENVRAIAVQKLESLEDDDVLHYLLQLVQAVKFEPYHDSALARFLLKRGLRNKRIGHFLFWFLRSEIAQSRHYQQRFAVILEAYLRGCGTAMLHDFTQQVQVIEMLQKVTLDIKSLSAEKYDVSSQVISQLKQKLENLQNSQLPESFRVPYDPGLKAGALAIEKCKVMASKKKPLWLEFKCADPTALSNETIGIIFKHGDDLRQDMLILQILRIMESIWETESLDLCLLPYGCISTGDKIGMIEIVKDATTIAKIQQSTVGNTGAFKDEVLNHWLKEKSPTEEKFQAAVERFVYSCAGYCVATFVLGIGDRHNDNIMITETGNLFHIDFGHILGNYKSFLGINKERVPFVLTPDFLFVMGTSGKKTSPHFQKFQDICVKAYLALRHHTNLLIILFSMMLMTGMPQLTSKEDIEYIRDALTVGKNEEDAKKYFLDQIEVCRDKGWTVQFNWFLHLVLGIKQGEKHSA
Assay: KINOMEscan competition binding
Conditions: compound 10.0 µM
Measured kinase still bound, per cent of control, listed per entry.
Report the value in % with no unit label.

[[record]]
smiles_representation = "O=C(NOC[C@H](O)CO)c1ccc(F)c(F)c1Nc1ccc(I)cc1F"
value_type = "kinase still bound, per cent of control"
result = 88

[[record]]
smiles_representation = "O=C(NC1CC1)c1cccc(-c2ccc3c(NC(=O)C4CC4)n[nH]c3c2)c1"
value_type = "kinase still bound, per cent of control"
result = 90


Which measured kinase still bound, per cent of control value corresponds to CCOc1cc2ncc(C#N)c(Nc3ccc(OCc4ccccn4)c(Cl)c3)c2cc1NC(=O)/C=C/CN(C)C ? 91

* * *

Molecular target: DYRK1A (human)
Assay: KINOMEscan competition binding
Settings: compound 10.0 µM
VALUE_TYPE: kinase still bound, per cent of control (%)
Report the value in % with no unit label.

Here's what some known entries look like.
[[record]]
smiles_representation = "Cc1ccc(NC(=O)c2cccc(C(C)(C)C#N)c2)cc1Nc1ccc2ncn(C)c(=O)c2c1"
target_or_test_system = "DYRK1A (human)"
result = 79

[[record]]
smiles_representation = "Cc1cc([C@@H](C)Nc2ccccc2C(=O)O)c2nc(N3CCOCC3)cc(=O)n2c1"
target_or_test_system = "DYRK1A (human)"
result = 90


Consider the additional molecule presented here.
Which measured kinase still bound, per cent of control value corresponds to CCN1CCN(Cc2ccc(Nc3ncc4c(n3)N(C)c3ccccc3C(=O)N4C)cc2C(F)(F)F)CC1 ? 51

* * *

Measured kinase still bound, per cent of control, listed per entry.
Biological target: RPS6KA6 KD1 (human)
Assay: KINOMEscan competition binding
Details: compound 10.0 µM
Report the value in % with no unit label.

[[record]]
molecule = "COc1cc(C(=O)NC2CCN(C)CC2)ccc1Nc1ncc2c(n1)N(C1CCCC1)C(C)CC(=O)N2C (configuration not stated)"
target_or_test_system = "RPS6KA6 KD1 (human)"
value_type = "kinase still bound, per cent of control"
result = 100


Which measured kinase still bound, per cent of control value corresponds to COc1cc(N2CCN(C)CC2)ccc1Nc1nc(N)c(C(=O)c2c(Cl)cccc2Cl)s1 ? 79

Which measured kinase still bound, per cent of control value corresponds to Cc1ccc(C(=O)Nc2cccc(C(F)(F)F)c2)cc1Nc1cncc(C(N)=O)c1 ? 100

Which measured kinase still bound, per cent of control value corresponds to COc1cc(C(=O)NC2CCN(C)CC2)ccc1Nc1ncc2c(n1)N(C1CCCC1)CCC(=O)N2C(C)C ? 100

Which measured kinase still bound, per cent of control value corresponds to OCCCNc1cc(-c2ccnc(Nc3cccc(Cl)c3)n2)ccn1 ? 100

Which measured kinase still bound, per cent of control value corresponds to Cn1c(=O)n(-c2ccc(C(C)(C)C#N)cc2)c2c3cc(-c4cnc5ccccc5c4)ccc3ncc21 ? 100

Which measured kinase still bound, per cent of control value corresponds to CN(C)C/C=C/C(=O)Nc1cccc(Nc2ncc3c(n2)N(C)c2ccccc2C(=O)N3C)c1 ? 9.2
